tested on: Candida tropicalis; experiment: Antifungal activity against Candida tropicalis 156 after 48 hrs by broth microdilution method; assay type: functional; details: Candida tropicalis, 156, 48 h
MEASUREMENT_KIND: MIC

Here are 4 molecules together with their reported answers.
O=[N+]([O-])c1cc(-c2nnc(SCc3ccc(Br)cc3)o2)cc([N+](=O)[O-])c1 > 125 µM
O=[N+]([O-])c1cc(-n2nnnc2SCc2ccc(Cl)c(Cl)c2)cc([N+](=O)[O-])c1 > 500 µM
O=[N+]([O-])c1cc(-c2nnc(SCc3ccc(Cl)c(Cl)c3)o2)cc([N+](=O)[O-])c1 > 125 µM
O=[N+]([O-])c1cc(-n2nnnc2SCc2ccc(Cl)cc2)cc([N+](=O)[O-])c1 > 500 µM

Below are 3 molecules. Give each one its MIC.
1. O=[N+]([O-])c1cc(-c2nnc(SCc3ccc(Cl)cc3)o2)cc([N+](=O)[O-])c1
2. O=[N+]([O-])c1cc(-c2nnc(SCc3ccccc3Cl)o2)cc([N+](=O)[O-])c1
3. COc1ccc(CSc2nnc(-c3cc([N+](=O)[O-])cc([N+](=O)[O-])c3)o2)cc1

[out]
> 125 µM
> 500 µM
> 500 µM

* * *

system: Mycobacterium avium; experiment: Antimycobacterial activity against Mycobacterium avium CNCTC My 330/88 after 21 days by micromethod; format: functional; settings: CNCTC My 330/88, 504 h
MEASUREMENT_KIND: MIC (µM)
One number for each entry, in µM.

Here are 3 compounds together with their reported answers.
O=[N+]([O-])c1cc(-c2nnc(SC3CCCCC3)o2)cc([N+](=O)[O-])c1 32
O=[N+]([O-])c1cc(-c2nnc(SCc3ccc(Br)cc3)o2)cc([N+](=O)[O-])c1 125
O=[N+]([O-])c1cc(-c2nnc(SCc3ccc(Cl)cc3Cl)o2)cc([N+](=O)[O-])c1 250

[in] Identify the measured MIC of O=[N+]([O-])c1cc(-c2nnc(S)o2)cc([N+](=O)[O-])c1 for Mycobacterium avium.
[out] 125

* * *

system: Candida tropicalis; assay: Antifungal activity against Candida tropicalis 156 after 24 hrs by broth microdilution method; format: functional; settings: Candida tropicalis, 156, 24 h
MEASUREMENT_KIND: MIC

Here are 8 compounds together with their reported answers.
C[C@@H]1[C@H](O)[C@@H](C)/C=C/C=C/C=C/C=C/C=C/C=C/C=C/[C@H](O[C@@H]2O[C@H](C)[C@@H](O)[C@H](N)[C@@H]2O)C[C@@H]2O[C@](O)(C[C@@H](O)C[C@@H](O)[C@H](O)CC[C@@H](O)C[C@@H](O)CC(=O)O[C@H]1C)C[C@H](O)[C@H]2C(=O)O 0.54 µM
O=[N+]([O-])c1cc(-c2nnc(SCc3ccc(Br)cc3)o2)cc([N+](=O)[O-])c1 > 125 µM
O=[N+]([O-])c1cc(-n2nnnc2SCc2ccc(Cl)cc2)cc([N+](=O)[O-])c1 > 500 µM
OC(Cn1cncn1)(Cn1cncn1)c1ccc(F)cc1F 1.6 µM
O=[N+]([O-])c1cc(-n2nnnc2SCc2ccc(Cl)c(Cl)c2)cc([N+](=O)[O-])c1 > 500 µM
O=[N+]([O-])c1cc(-c2nnc(SCc3ccccc3Cl)o2)cc([N+](=O)[O-])c1 > 500 µM
O=[N+]([O-])c1cc(-c2nnc(SCc3ccc(Cl)c(Cl)c3)o2)cc([N+](=O)[O-])c1 > 125 µM
COc1ccc(CSc2nnc(-c3cc([N+](=O)[O-])cc([N+](=O)[O-])c3)o2)cc1 > 500 µM

Consider now this further compound.
[in] Query (compound): O=[N+]([O-])c1cc(-c2nnc(SCc3ccc(Cl)cc3)o2)cc([N+](=O)[O-])c1 ; field requested: MIC
[out] > 125 µM

* * *

experiment: Cytotoxicity against human A431 cells assessed as cell viability at 30 uM after 48 hrs by MTS assay relative to control; type: cell-based, A-431; details: read-out: Activity
MEASUREMENT_KIND: viability at 48 h, 30 µM (%)
Answers are plain numbers, in %.

O=[N+]([O-])c1cc(-n2nnnc2SCc2ccc(Cl)cc2)cc([N+](=O)[O-])c1 74
O=[N+]([O-])c1cc(-c2nnc(SCc3ccc(Cl)c(Cl)c3)o2)cc([N+](=O)[O-])c1 126
COc1ccc(CSc2nnc(-c3cc([N+](=O)[O-])cc([N+](=O)[O-])c3)o2)cc1 93

Below are 2 molecules. Give each one its viability at 48 h, 30 µM.
1. O=[N+]([O-])c1cc(-c2nnc(SCc3cccc(Cl)c3)o2)cc([N+](=O)[O-])c1
2. O=[N+]([O-])c1cc(-c2nnc(SCc3ccc(Br)cc3)o2)cc([N+](=O)[O-])c1

[out]
1. 105
2. 99

* * *

tested on: Staphylococcus aureus; assay: Antibacterial activity against methicillin-resistant Staphylococcus aureus HK5996/08 after 48 hrs by broth microdilution method; assay type: functional; conditions: HK5996/08, 48 h
MEASUREMENT_KIND: MIC

Here are 6 compounds together with their reported answers.
O=[N+]([O-])c1cc(-c2nnc(SCc3ccc(Br)cc3)o2)cc([N+](=O)[O-])c1 > 125 µM
COc1ccc(CSc2nnc(-c3cc([N+](=O)[O-])cc([N+](=O)[O-])c3)o2)cc1 > 500 µM
O=[N+]([O-])c1cc(-c2nnc(SCc3ccc(Cl)c(Cl)c3)o2)cc([N+](=O)[O-])c1 > 125 µM
O=[N+]([O-])c1cc(-c2nnc(SCc3ccc(Cl)cc3)o2)cc([N+](=O)[O-])c1 > 500 µM
O=[N+]([O-])c1cc(-n2nnnc2SCc2ccc(Cl)cc2)cc([N+](=O)[O-])c1 125 µM
O=[N+]([O-])c1cc(-c2nnc(SCc3ccccc3Cl)o2)cc([N+](=O)[O-])c1 > 500 µM

Consider now this further compound.
[in] Query (compound): O=[N+]([O-])c1cc(-n2nnnc2SCc2ccc(Cl)c(Cl)c2)cc([N+](=O)[O-])c1 ; field requested: MIC
[out] 125 µM

* * *

Consider the following molecules; for each one, report its MIC.
test system: Mycobacterium avium; assay: Antimycobacterial activity against Mycobacterium avium CNCTC My 330/88 after 21 days by micromethod; format: functional; conditions: CNCTC My 330/88, 504 h

Below are 4 molecules. Give each one its MIC.
1. O=[N+]([O-])c1cc(-n2nnnc2SCc2ccc(Cl)c(Cl)c2)cc([N+](=O)[O-])c1
2. CSc1nnc(-c2cc([N+](=O)[O-])cc([N+](=O)[O-])c2)o1
3. Nc1cc(-c2nnc(SCc3ccc([N+](=O)[O-])cc3)o2)cc([N+](=O)[O-])c1
4. NNC(=O)c1ccncc1

[out]
1. 32 µM
2. 16 µM
3. 125 µM
4. > 250 µM

Below are 5 molecules. Give each one its MIC.
1. CC(=O)Nc1cc(-c2nnc(SCc3ccccc3)o2)cc([N+](=O)[O-])c1
2. CCCCCSc1nnc(-c2cc([N+](=O)[O-])cc([N+](=O)[O-])c2)o1
3. O=[N+]([O-])c1cc(-c2nnc(SCc3ccc(Cl)c(Cl)c3)o2)cc([N+](=O)[O-])c1
4. O=[N+]([O-])c1cc(-n2nnnc2SCc2ccc(Cl)cc2)cc([N+](=O)[O-])c1
5. CCCSc1nnc(-c2cc([N+](=O)[O-])cc([N+](=O)[O-])c2)o1

[out]
["> 1000 µM", "32 µM", "32 µM", "16 µM", "8 µM"]

[in] Query (molecule): Nc1cc(-c2nnc(SCc3ccc(Br)cc3)o2)cc([N+](=O)[O-])c1 ; field requested: MIC
[out] 125 µM

* * *

test system: Pichia kudriavzevii; assay: Antifungal activity against Candida krusei E28 after 24 hrs by broth microdilution method; assay type: functional; settings: E28, 24 h
MEASUREMENT_KIND: MIC

Here are 6 molecules together with their reported answers.
MOLECULE	TESTED_TARGET	MIC
OC(Cn1cncn1)(Cn1cncn1)c1ccc(F)cc1F [FLUCONAZOLE]	Pichia kudriavzevii	105 µM
O=[N+]([O-])c1cc(-c2nnc(SCc3ccccc3Cl)o2)cc([N+](=O)[O-])c1	Pichia kudriavzevii	> 500 µM
O=[N+]([O-])c1cc(-n2nnnc2SCc2ccc(Cl)cc2)cc([N+](=O)[O-])c1	Pichia kudriavzevii	> 500 µM
O=[N+]([O-])c1cc(-c2nnc(SCc3ccc(Cl)cc3)o2)cc([N+](=O)[O-])c1	Pichia kudriavzevii	> 125 µM
O=[N+]([O-])c1cc(-c2nnc(SCc3ccc(Br)cc3)o2)cc([N+](=O)[O-])c1	Pichia kudriavzevii	> 125 µM
COc1ccc(CSc2nnc(-c3cc([N+](=O)[O-])cc([N+](=O)[O-])c3)o2)cc1	Pichia kudriavzevii	> 500 µM

Below are 3 molecules. Give each one its MIC.
1. C[C@@H]1[C@H](O)[C@@H](C)/C=C/C=C/C=C/C=C/C=C/C=C/C=C/[C@H](O[C@@H]2O[C@H](C)[C@@H](O)[C@H](N)[C@@H]2O)C[C@@H]2O[C@](O)(C[C@@H](O)C[C@@H](O)[C@H](O)CC[C@@H](O)C[C@@H](O)CC(=O)O[C@H]1C)C[C@H](O)[C@H]2C(=O)O [AMPHOTERICIN B]
2. O=[N+]([O-])c1cc(-n2nnnc2SCc2ccc(Cl)c(Cl)c2)cc([N+](=O)[O-])c1
3. O=[N+]([O-])c1cc(-c2nnc(SCc3ccc(Cl)c(Cl)c3)o2)cc([N+](=O)[O-])c1

[out]
1: 1 µM; 2: > 500 µM; 3: > 125 µM
